Reference for the values: ChEMBL document CHEMBL3797100

assay_text: Cytotoxicity against human MT4 cells after 5 days MTT assay
Format: cell-based
measured_parameter: CC50 at 120 h (µM)
Form entry: value (µM) — number only.

Example results:
- compound_structure_string: "O=c1[nH]c(=O)n(COCc2ccccc2)c(COCc2ccc(Cl)cc2)c1Br"
  number: 25
- compound_structure_string: "Cc1ccc(COCc2cc(=O)[nH]c(=O)n2COCc2ccccc2)cc1"
  number: 60

Attention now shifts to the item below.
Q. Could you tell me which CC50 at 120 h is on file for O=c1cc(COCc2ccccc2)n(COCc2ccccc2)c(=O)[nH]1 ?
A. 69

---

Catalogue of compounds with associated CC50 at 96 h
assay_text: Cytotoxicity against MDCK cells assessed as cell viability measured after 4 days by formazan-based MTS assay
Set-up: species or system Canis lupus familiaris
settings: dog

- compound_structure_string: "NC12CC3CC(CC(C3)C1)C2"
  CC50 at 96 h: "> 200 µM"

Q. Could you tell me which CC50 at 96 h is on file for O=c1[nH]c(=O)n(COCc2ccccc2)c(COCc2ccccc2)c1Br ?
A. ≥ 33 µM

Q. Could you tell me which CC50 at 96 h is on file for Cc1cc(C)cc(COCn2c(COCc3ccccc3)cc(=O)[nH]c2=O)c1 ?
A. > 100 µM

Q. Could you tell me which CC50 at 96 h is on file for N#Cc1ccc(COCn2c(COCc3ccccc3)cc(=O)[nH]c2=O)cc1 ?
A. > 100 µM

Q. Could you tell me which CC50 at 96 h is on file for Cc1ccc(COCc2cc(=O)[nH]c(=O)n2COCc2ccccc2)cc1 ?
A. > 100 µM

Q. Could you tell me which CC50 at 96 h is on file for NC(=O)c1ncn([C@@H]2O[C@H](CO)[C@@H](O)[C@H]2O)n1 ?
A. > 100 µM

Q. Could you tell me which CC50 at 96 h is on file for O=c1[nH]c(=O)n(COCc2ccccc2)c(COCc2ccc(Cl)cc2)c1Br ?
A. 38 µM
